# TESTED_TARGET: recombinant human GR (Homo sapiens, UniProt P04150)
# Sequence (P04150 whole entry): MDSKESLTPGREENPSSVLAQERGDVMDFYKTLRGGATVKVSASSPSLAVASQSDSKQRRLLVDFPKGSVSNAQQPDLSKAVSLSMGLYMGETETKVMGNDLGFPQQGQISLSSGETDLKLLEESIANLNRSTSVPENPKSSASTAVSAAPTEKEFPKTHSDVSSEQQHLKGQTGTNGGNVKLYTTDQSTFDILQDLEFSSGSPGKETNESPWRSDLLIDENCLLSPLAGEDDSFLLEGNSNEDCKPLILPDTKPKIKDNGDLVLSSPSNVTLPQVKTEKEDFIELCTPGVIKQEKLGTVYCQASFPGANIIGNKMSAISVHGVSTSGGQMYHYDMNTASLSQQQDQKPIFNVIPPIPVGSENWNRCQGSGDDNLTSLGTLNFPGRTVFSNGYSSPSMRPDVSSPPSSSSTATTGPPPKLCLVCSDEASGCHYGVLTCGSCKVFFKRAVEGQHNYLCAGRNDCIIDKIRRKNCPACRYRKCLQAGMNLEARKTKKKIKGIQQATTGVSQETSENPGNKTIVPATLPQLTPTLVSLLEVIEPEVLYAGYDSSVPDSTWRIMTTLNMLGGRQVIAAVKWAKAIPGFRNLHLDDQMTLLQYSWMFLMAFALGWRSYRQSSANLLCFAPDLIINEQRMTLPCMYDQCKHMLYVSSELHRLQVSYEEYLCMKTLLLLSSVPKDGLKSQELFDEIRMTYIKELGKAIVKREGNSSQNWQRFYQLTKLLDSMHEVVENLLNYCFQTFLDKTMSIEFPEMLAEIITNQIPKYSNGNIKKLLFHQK
# TEST_SUMMARY: Human Glucocorticoid Receptor (GR) Assay, fluorescence polarization
# CONDITION_DESCRIPTION: GS Red tracer, incubated 2 h at r.t., XLfit model 205, read-out: GRhuFL_FP_v2 Mean IC50
# Procedure: Human Glucocorticoid Receptor (GR) Assay The assay is based on a commercial kit from Panvera/Invitrogen (Part number P2893). The assay technology is fluorescence polarization. […] The GR and Stabilizing Peptide reagents are stored at −70° C. while the GS Red is stored at −20° C. Also included in the kit are 1M DTT (Panvera, Part number P2325, stored at −20° C.) and GR Screening buffer 10× (Panvera, Part number P2814, stored at −70° C. initially but once thawed stored at r.t.). […]
VALUE_KIND: pIC50
Bear in mind: pIC50 is minus log10 of a mol/L concentration; give just that figure.

input: // fetch recombinant human GR (Homo sapiens, UniProt P04150) pIC50 for C[C@H](NC(=O)c1ccco1)[C@H](Oc1ccc2c(cnn2-c2cccnc2)c1)c1ccccc1
output: 8.49
